Parameter Kd: see the listing below.
Molecular target: T1, His9-hMSR1 (human MSR1 extracellular domain) (Homo sapiens, UniProt P21757)
T1 construct: human MSR1 extracellular domain expressed with a N-terminal nonahistidine tag; His9 (nonahistidine) (N); purchased R&D Systems 2708-MS
T1 sequence (P21757 77-451 limits assumed): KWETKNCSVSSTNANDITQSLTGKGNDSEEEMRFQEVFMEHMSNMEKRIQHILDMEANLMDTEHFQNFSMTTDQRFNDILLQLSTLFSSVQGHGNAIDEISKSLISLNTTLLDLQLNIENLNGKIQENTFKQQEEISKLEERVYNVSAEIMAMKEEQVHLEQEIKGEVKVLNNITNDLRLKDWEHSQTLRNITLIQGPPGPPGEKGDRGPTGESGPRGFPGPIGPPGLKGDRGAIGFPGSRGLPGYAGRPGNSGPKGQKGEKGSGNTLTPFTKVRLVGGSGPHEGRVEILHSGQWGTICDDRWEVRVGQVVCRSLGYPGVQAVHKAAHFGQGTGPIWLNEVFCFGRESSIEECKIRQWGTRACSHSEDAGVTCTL
Assay: Biacore surface plasmon resonance binding kinetics of anti-MSR1 mAbs, antibody-capture format
Conditions: 25° C.; analyte His9-hMSR1; calculated from kinetic rates; NB = no binding observed

molecule	Kd (nM)
H1H21227N: "anti-MSR1 antibodies ... (21227N, 21231N, 21234N) were produced with the original human Fcγ portion"; "H1H" = human IgG1 Fc (antibody, V domains shown, human IgG1 Fc, "anti-MSR1 antibodies ; (21227N, 21231N, 21234N) were produced with the original human Fcγ portion"; "H1H" = human IgG1 Fc) VH: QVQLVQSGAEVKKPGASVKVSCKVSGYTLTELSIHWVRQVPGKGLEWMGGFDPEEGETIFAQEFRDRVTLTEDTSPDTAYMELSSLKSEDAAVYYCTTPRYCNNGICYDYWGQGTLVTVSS VL: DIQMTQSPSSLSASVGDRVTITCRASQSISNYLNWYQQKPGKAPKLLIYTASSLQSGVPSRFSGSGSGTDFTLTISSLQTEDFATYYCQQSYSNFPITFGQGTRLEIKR	0.012
H1H21231N-N297Q: modified version of "21231N (H1H21231N-N297Q) anti-MSR1 antibodies" with "a N297Q single point mutation" (antibody, V domains shown) VH: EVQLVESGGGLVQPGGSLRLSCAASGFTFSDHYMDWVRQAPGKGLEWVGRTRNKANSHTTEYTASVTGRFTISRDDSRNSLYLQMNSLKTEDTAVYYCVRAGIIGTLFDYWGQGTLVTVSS VL: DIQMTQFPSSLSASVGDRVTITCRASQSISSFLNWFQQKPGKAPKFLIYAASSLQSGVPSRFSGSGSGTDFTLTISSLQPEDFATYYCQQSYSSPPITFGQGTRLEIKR	0.147
H1H21227N-N297Q: "modified versions of 21227N (H1H21227N-N297Q and H1H21227N-N297D)"; anti-MSR1 antibody "with a N297Q single point mutation" (antibody, V domains shown) VH: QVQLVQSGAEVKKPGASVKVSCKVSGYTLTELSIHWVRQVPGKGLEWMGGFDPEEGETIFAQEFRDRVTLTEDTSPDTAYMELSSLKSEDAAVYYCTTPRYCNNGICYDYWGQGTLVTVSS VL: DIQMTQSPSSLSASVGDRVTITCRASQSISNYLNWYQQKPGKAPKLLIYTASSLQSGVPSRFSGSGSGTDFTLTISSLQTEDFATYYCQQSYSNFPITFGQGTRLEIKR	0.0397
